IC50 for assorted compounds
Experimental system: GSK3β (Homo sapiens)
Sequence (P49841 whole entry, species assumed): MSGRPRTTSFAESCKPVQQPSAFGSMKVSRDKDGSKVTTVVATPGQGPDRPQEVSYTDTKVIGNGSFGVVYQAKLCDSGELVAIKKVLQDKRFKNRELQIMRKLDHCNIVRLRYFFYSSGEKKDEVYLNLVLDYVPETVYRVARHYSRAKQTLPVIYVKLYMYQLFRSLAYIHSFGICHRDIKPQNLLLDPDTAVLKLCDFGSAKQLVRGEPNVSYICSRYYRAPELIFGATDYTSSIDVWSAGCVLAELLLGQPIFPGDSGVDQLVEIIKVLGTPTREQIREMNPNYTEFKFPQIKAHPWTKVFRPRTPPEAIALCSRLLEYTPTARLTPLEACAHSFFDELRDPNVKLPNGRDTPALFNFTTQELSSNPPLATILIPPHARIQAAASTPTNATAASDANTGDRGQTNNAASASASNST
Experiment notes: GSK3beta assay (SPA, biotinylated phosphorylated CREB peptide, ATP-P33)
Format: biochemical
Measurement parameters: −log IC50 (M); given as ranges (>8; 7-8; <7); read-out: pIC50 (GSK3beta) (converted)

Example entries begin here.
{"Smiles str": "N#Cc1ccc(Nc2ncc3nnn(-c4cccc(C(=O)NCCO)c4)c3n2)cc1", "Reported metric": "IC50", "Endpoint value": "< 1e-08 M"}
{"Smiles str": "NS(=O)(=O)c1ccc(Nc2ncc3nnn(-c4cccc(C(=O)NCCO)c4)c3n2)cc1", "Reported metric": "IC50", "Endpoint value": "1e-08 to 1e-07 M"}
{"Smiles str": "CC(=O)NCc1cccc(Nc2ncc3nnn(-c4ccccc4)c3n2)c1", "Reported metric": "IC50", "Endpoint value": "1e-08 to 1e-07 M"}
{"Smiles str": "NCc1cccc(Nc2ncc3nnn(-c4cccc(F)c4)c3n2)c1", "Reported metric": "IC50", "Endpoint value": "1e-08 to 1e-07 M"}

Just so you know, measured IC50 for CC(=O)NCc1cccc(Nc2ncc3nnn(-c4cccc(CCO)c4)c3n2)c1 came out at < 1e-08 M

Quick note, IC50 for NCCc1ccc(Nc2ncc3nnn(-c4cccc(CCO)c4)c3n2)cc1 landed at < 1e-08 M

Notebook: CC(=O)NCc1cccc(-n2nnc3cnc(Nc4cccc(S(N)(=O)=O)c4)nc32)c1 , IC50 read as < 1e-08 M

// O=C(O)c1ccc(Nc2ncc3nnn(-c4cccc(C(=O)NCCO)c4)c3n2)cc1 : IC50 value = 1e-08 to 1e-07 M
